Origin of measurements: patent US20220135638A1

Target: T1, full-length human GIPR (GenBank NM_000164) with an N-terminal FLAG tag on HEK-293T cells (human), P48546
T1 chain: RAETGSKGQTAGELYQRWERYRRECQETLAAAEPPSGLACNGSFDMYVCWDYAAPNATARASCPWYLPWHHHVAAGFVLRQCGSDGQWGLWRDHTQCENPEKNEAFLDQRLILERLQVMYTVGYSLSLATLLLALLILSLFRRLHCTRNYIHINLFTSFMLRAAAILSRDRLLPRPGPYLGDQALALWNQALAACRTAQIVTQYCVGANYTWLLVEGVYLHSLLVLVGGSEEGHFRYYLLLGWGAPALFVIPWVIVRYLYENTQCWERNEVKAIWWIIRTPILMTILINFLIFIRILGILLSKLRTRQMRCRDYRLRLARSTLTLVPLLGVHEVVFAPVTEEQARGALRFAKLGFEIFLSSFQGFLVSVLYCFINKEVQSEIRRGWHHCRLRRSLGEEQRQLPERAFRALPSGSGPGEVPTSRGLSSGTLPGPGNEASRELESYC
Assay: cell-based or functional assay
Numbered stars: 1 amine (or outer) side, 2 acyl side, 3 side chain; on linkers, the order of the positions; unused ones are H or OH. Square brackets hold non-standard residues; d marks the D form. Primed or numbered codes have the meaning given here. Side chains are listed from the residue outwards. Ends that are not written are not given here. * marks the point of attachment. C20 diacid = O=C(O)CCCCCCCCCCCCCCCCCCC(=O)*; C18 diacid = O=C(O)CCCCCCCCCCCCCCCCC(=O)*; C16 diacid = O=C(O)CCCCCCCCCCCCCCC(=O)*; γGlu = O=C(O)[C@H](CCC(=O)[*:2])N[*:1]; Iva = CC[C@](C)(N)C(=O)O; PEG3′ = not defined here; Aib = CC(C)(N)C(=O)O
ENDPOINT: GIP EC50(pM)
State the value, then name its unit.

Item Y[Aib]EGTFISDYSIALDR[Aib]HQ[Aib]NFVNW[Iva]LAQRPSSGAPPPK([Gly-Gly-Gly-Gly-Gly-γGlu-C20 diacid]) (ends and bridges not checked) [Compound No. 464] : provide GIP EC50(pM)
1.29 pM

Read the entry Y[Aib]EGTFISDYSIALDR[Aib]HQ[Aib]NFVNW[Iva]LAQRPSK([Gly-Gly-Gly-Gly-Gly-γGlu-C18 diacid])GAPPPS (ends and bridges not checked) [Compound No. 445] and write its reported GIP EC50(pM).
0.38 pM

Identify measured GIP EC50(pM) corresponding to Y[Aib]EGTFISDYSIALDR[Aib]HQ[Aib]NFVNW[Iva]LAQRPSSGAK([γGlu-γGlu-C18 diacid])PPS (ends and bridges not checked) [Compound No. 552]
1.12 pM

Identify GIP EC50(pM) associated with the binder Y[Aib]EGTFISDYSIALDR[Aib]HQ[Aib]NFVNW[Iva]LAQRPSSGAPK([PEG3′-γGlu-C18 diacid])PS (ends and bridges not checked) [Compound No. 528]
0.87 pM

Respond only with GIP EC50(pM) recorded for Y[Aib]EGTFISDYSIALDR[Aib]HQ[Aib]NFVNW[Iva]LAQRPSSGK([PEG3′-γGlu-C16 diacid])PPPS (ends and bridges not checked) [Compound No. 521]
0.9 pM

Hello, please tell me recorded GIP EC50(pM) for this one: Y[Aib]EGTFISDYSIALDR[Aib]HQ[Aib]NFVNW[Iva]LAQRPK([PEG3′-γGlu-C16 diacid])SGAPPPSS (ends and bridges not checked) [Compound No. 512]
0.53 pM

Identify measured GIP EC50(pM) corresponding to Y[Aib]EGTFISDYSIALDR[Aib]HQ[Aib]NFVNW[Iva]LAQRKSSGAPPPS (not fully specified (residue 31); ends and bridges not checked) [Compound No. 469]
0.62 pM

Indicate its recorded GIP EC50(pM); the binder in question is Y[Aib]EGTFISDYSIALDR[Aib]HQ[Aib]NFVNW[Iva]LAQRK([γGlu-γGlu-C18 diacid])SSGAPPPS (ends and bridges not checked) [Compound No. 547]
0.41 pM
